Experiment: AUC in rat at 5 mg/kg, po by LC-MS/MS analysis
Type: ADME, organism-based
Settings: in vivo
outcome_measure: AUC (ng·h/mL)
Give just the number in ng·h/mL; leave the unit off.

CNC(=O)c1c(-c2ccc(F)cc2)oc2cc(N(c3ccc(B(O)O)c(Cl)c3)S(C)(=O)=O)c(C3CC3)cc12    4800
CNC(=O)c1c(-c2ccc(F)cc2)oc2cc(-n3nccc3-c3ccc(B(O)O)c(F)c3)c(C3CC3)cc12    10000

INPUT: Query: AUC; subject: CNC(=O)c1c(-c2ccc(F)cc2)oc2cc(-n3ncnc3-c3ccc(B(O)O)c(F)c3)c(C3CC3)cc12
OUTPUT: 7600

INPUT: Item CNC(=O)c1c(-c2ccc(F)cc2)oc2cc(N(Cc3ccc(B(O)O)c(F)c3)S(C)(=O)=O)c(C3CC3)cc12 has what recorded AUC?
OUTPUT: 700

###

Biological target: Voltage-gated inwardly rectifying potassium channel KCNH2 (Homo sapiens, UniProt Q12809)
Sequence (Q12809 whole entry): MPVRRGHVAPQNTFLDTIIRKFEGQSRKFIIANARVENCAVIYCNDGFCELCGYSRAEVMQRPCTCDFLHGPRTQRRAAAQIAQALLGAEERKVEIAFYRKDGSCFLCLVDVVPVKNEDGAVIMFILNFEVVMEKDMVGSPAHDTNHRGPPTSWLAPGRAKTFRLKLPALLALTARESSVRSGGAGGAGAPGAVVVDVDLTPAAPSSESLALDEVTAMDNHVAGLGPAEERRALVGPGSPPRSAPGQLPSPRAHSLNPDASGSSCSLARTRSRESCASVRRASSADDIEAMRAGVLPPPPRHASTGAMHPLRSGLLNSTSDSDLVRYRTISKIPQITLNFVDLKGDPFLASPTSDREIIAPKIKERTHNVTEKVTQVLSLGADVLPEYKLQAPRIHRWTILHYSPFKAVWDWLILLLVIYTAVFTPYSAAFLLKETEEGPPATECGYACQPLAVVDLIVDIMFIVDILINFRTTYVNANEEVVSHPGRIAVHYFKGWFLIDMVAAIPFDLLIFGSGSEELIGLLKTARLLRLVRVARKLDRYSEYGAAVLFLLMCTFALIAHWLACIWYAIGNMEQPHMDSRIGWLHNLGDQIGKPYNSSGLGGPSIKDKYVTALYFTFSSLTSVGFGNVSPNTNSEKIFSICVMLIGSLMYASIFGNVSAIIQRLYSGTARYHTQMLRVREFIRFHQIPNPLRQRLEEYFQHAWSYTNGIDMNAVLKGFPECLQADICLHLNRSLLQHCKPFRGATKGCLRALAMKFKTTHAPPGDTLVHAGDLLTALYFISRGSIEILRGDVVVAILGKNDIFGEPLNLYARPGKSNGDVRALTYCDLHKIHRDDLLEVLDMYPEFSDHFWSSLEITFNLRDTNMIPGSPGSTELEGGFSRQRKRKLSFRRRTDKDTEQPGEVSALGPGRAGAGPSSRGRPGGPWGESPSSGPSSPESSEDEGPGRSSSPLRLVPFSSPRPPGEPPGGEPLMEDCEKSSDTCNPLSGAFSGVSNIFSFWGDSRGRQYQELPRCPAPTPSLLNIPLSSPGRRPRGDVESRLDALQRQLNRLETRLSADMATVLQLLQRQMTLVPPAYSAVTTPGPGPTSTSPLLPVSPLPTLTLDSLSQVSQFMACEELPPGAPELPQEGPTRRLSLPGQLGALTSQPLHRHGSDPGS
Assay: Inhibition of human ERG by patch clamp electrophysiology method
outcome_measure: pIC50
Remember the convention: pIC50 equals -log10 of concentration in molar.

CNC(=O)c1c(-c2ccc(F)cc2)oc2cc(N(c3cc(Cl)c4c(c3)COB4O)S(C)(=O)=O)c(C3CC3)cc12    4.80

Could you now look at the following compound, please?
INPUT: Would you kindly share the measured pIC50 for CNC(=O)c1c(-c2ccc(F)cc2)oc2cc(N(c3ccc(B(O)O)c(Cl)c3)S(C)(=O)=O)c(C3CC3)cc12 ?
OUTPUT: 5.80

###

Test: Volume of distribution at steady state in rat at 1 mg/kg, iv by LC-MS/MS analysis
Format: ADME, organism-based
Conditions: in vivo, read-out: Vdss
Binary call on Vd: yes from 1 L/kg upward, no beneath that.

CNC(=O)c1c(-c2ccc(F)cc2)oc2cc(N(Cc3ccc(B(O)O)c(F)c3)S(C)(=O)=O)c(C3CC3)cc12    yes

INPUT: # bool: Vd of CNC(=O)c1c(-c2ccc(F)cc2)oc2cc(N(c3cc(Cl)c4c(c3)COB4O)S(C)(=O)=O)c(C3CC3)cc12 >= 1 L/kg
OUTPUT: no

###

Assay: Half life in rat hepatocytes at 0.5 uM by LC-MS/MS analysis
Assay type: ADME, cell-based, Hepatocyte
outcome_measure: half-life at 0.5 µM (min)
Response body: numeric value in min, unit text excluded.

INPUT: Returns the measured half-life at 0.5 µM for the input compound. Input: CNC(=O)c1c(-c2ccc(F)cc2)oc2cc(N(C3CCc4c(B(O)O)cccc43)S(C)(=O)=O)c(C3CC3)cc12 (stereo unspecified)
OUTPUT: 45

###

For Cytochrome P450 2C19 (Homo sapiens), measured IC50 is reported for the entries below.

Some solved entries appear below for comparison.
CNC(=O)c1c(-c2ccc(F)cc2)oc2cc(N(c3ccc(B(O)O)c(Cl)c3)S(C)(=O)=O)c(C3CC3)cc12    7.4 µM
CNC(=O)c1c(-c2ccc(F)cc2)oc2cc(N(Cc3ccc(B(O)O)c(F)c3)S(C)(=O)=O)c(C3CC3)cc12    18 µM
CNC(=O)c1c(-c2ccc(F)cc2)oc2cc(-n3nccc3-c3ccc(B(O)O)c(F)c3)c(C3CC3)cc12    23 µM
CNC(=O)c1c(-c2ccc(F)cc2)oc2cc(-n3ncnc3-c3ccc(B(O)O)c(F)c3)c(C3CC3)cc12    1.2 µM

# input for lookup
INPUT: Kindly state the measured IC50 obtained for CNC(=O)c1c(-c2ccc(F)cc2)oc2cc(N(c3cc(Cl)c4c(c3)COB4O)S(C)(=O)=O)c(C3CC3)cc12 with Cytochrome P450 2C19 (Homo sapiens).
Sequence (P33261 whole entry): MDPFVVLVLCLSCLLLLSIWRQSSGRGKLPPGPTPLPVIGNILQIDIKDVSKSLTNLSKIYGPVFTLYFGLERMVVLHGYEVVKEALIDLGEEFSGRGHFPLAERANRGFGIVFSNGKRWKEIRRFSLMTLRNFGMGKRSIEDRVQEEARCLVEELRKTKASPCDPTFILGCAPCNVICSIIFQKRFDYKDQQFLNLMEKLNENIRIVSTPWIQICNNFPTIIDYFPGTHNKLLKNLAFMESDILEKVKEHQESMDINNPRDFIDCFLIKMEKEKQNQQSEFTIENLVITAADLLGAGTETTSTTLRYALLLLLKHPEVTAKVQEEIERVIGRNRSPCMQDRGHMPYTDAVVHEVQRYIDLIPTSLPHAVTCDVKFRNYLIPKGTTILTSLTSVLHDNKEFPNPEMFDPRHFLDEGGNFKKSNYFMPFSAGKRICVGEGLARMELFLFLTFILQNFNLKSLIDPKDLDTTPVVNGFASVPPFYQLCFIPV
OUTPUT: > 33 µM

###

Target: Cytochrome P450 3A4 (Homo sapiens)
Sequence (P08684 whole entry): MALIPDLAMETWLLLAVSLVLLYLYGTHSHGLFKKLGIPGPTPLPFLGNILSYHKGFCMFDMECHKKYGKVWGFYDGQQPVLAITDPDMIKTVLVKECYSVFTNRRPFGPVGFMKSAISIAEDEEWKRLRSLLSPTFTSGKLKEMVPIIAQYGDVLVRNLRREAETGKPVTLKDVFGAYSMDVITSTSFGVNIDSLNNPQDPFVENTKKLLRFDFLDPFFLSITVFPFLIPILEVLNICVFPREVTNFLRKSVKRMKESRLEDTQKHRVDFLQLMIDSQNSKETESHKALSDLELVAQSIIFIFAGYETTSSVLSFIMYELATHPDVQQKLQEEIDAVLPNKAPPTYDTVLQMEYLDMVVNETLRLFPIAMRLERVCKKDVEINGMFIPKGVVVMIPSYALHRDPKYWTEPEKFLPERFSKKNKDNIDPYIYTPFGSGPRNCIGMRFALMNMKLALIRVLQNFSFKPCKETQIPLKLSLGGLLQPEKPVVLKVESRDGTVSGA
Experiment: Inhibition of CYP3A4 in human liver microsomes using atorvastatin as substrate preincubated for 7 mins followed by NADPH addition and measured by LC-MS/MS analysis
Type: ADME
Listing of recorded pIC50 by entry.
Answer as the number alone; pIC50 is minus log10 of concentration in mol/L.

As a guide, the following entries are already answered.
CNC(=O)c1c(-c2ccc(F)cc2)oc2cc(N(Cc3ccc(B(O)O)c(F)c3)S(C)(=O)=O)c(C3CC3)cc12    5.15
CNC(=O)c1c(-c2ccc(F)cc2)oc2cc(-n3ncnc3-c3ccc(B(O)O)c(F)c3)c(C3CC3)cc12    5.05
CNC(=O)c1c(-c2ccc(F)cc2)oc2cc(N(c3ccc(B(O)O)c(Cl)c3)S(C)(=O)=O)c(C3CC3)cc12    5.38

# next molecule below
INPUT: Recorded pIC50 of CNC(=O)c1c(-c2ccc(F)cc2)oc2cc(-n3nccc3-c3ccc(B(O)O)c(F)c3)c(C3CC3)cc12 , please.
OUTPUT: 5.70

###

Target: Cytochrome P450 3A4 (Homo sapiens)
Experiment: Inhibition of CYP3A4 in human liver microsomes using nifedipine as substrate preincubated for 7 mins followed by NADPH addition and measured by LC-MS/MS analysis
Format: ADME
Quick reference for pIC50 among some compounds
A value of pIC50 is the negative decimal logarithm of a concentration given in moles per litre.

CNC(=O)c1c(-c2ccc(F)cc2)oc2cc(N(Cc3ccc(B(O)O)c(F)c3)S(C)(=O)=O)c(C3CC3)cc12    4.55

Query compound follows.
INPUT: What does the record list as pIC50 for CNC(=O)c1c(-c2ccc(F)cc2)oc2cc(N(c3ccc(B(O)O)c(Cl)c3)S(C)(=O)=O)c(C3CC3)cc12 ?
OUTPUT: 5.09

###

Test: Half life in rat at 1 mg/kg, iv by LC-MS/MS analysis
Assay type: ADME, organism-based
Settings: in vivo
Threshold 3 h: half-life strictly smaller gives YES, otherwise NO.

Consider the following illustrative entries.
CNC(=O)c1c(-c2ccc(F)cc2)oc2cc(N(c3cc(Cl)c4c(c3)COB4O)S(C)(=O)=O)c(C3CC3)cc12    YES
CNC(=O)c1c(-c2ccc(F)cc2)oc2cc(N(Cc3ccc(B(O)O)c(F)c3)S(C)(=O)=O)c(C3CC3)cc12    YES
CNC(=O)c1c(-c2ccc(F)cc2)oc2cc(-n3nccc3-c3ccc(B(O)O)c(F)c3)c(C3CC3)cc12    NO
CNC(=O)c1c(-c2ccc(F)cc2)oc2cc(N(c3ccc(B(O)O)c(Cl)c3)S(C)(=O)=O)c(C3CC3)cc12    NO
CNC(=O)c1c(-c2ccc(F)cc2)oc2cc(-n3ncnc3-c3ccc(B(O)O)c(F)c3)c(C3CC3)cc12    YES

INPUT: API: query returns whether the compound falls strictly under 3 h in half-life. Query: CNC(=O)c1c(-c2ccc(F)cc2)oc2cc(N3C(=O)OC[C@@H]3c3ccc(B(O)O)c(F)c3)c(C3CC3)cc12
OUTPUT: YES

INPUT: A record lists CNC(=O)c1c(-c2ccc(F)cc2)oc2cc(N(C3CCc4c(B(O)O)cccc43)S(C)(=O)=O)c(C3CC3)cc12 (configuration not stated) . Is its half-life below 3 h?
OUTPUT: YES

###

Assay: Blood clearance in rat at 1 mg/kg, iv by LC-MS/MS analysis
Format: ADME, organism-based
Conditions: whole blood
outcome_measure: clearance (L/h/kg)
Quick reminder: number only, in L/h/kg, skip the unit.

INPUT: # lookup: clearance of CNC(=O)c1c(-c2ccc(F)cc2)oc2cc(N(Cc3ccc(B(O)O)c(F)c3)S(C)(=O)=O)c(C3CC3)cc12
OUTPUT: 1.74

###

Test: Plasma clearance in cynomolgus monkey at 1 mg/kg, iv by LC-MS/MS analysis
Type: ADME, organism-based, Macaca fascicularis
outcome_measure: clearance
Please provide the amount together with its unit, number first.

INPUT: I would be grateful if you could share the reported clearance for CNC(=O)c1c(-c2ccc(F)cc2)oc2cc(N(Cc3ccc(B(O)O)c(F)c3)S(C)(=O)=O)c(C3CC3)cc12 .
OUTPUT: 48 mL/min/kg

###

Assay: AUC in rat at 5 mg/kg, po by LC-MS/MS analysis
Type: ADME, organism-based
Conditions: in vivo
outcome_measure: AUC
# output: numeric value plus its unit

INPUT: Fill blank: measured AUC of the compound CNC(=O)c1c(-c2ccc(F)cc2)oc2cc(N3C(=O)OC[C@@H]3c3ccc(B(O)O)c(F)c3)c(C3CC3)cc12 is ____.
OUTPUT: 280 ng·h/mL

INPUT: Given the entry CNC(=O)c1c(-c2ccc(F)cc2)oc2cc(N(c3cc(Cl)c4c(c3)COB4O)S(C)(=O)=O)c(C3CC3)cc12 , report its measured AUC.
OUTPUT: 5400 ng·h/mL

INPUT: For CNC(=O)c1c(-c2ccc(F)cc2)oc2cc(N(C3CCc4c(B(O)O)cccc43)S(C)(=O)=O)c(C3CC3)cc12 (stereo not drawn) , what is its reported AUC?
OUTPUT: 40 ng·h/mL

Data credit: ChEMBL document CHEMBL4390640
